Data origin: BigSolDB 2.1

conditions: in DMSO, 318.15 K
Parameter Measured: solubility (mole fraction)

Smiles Notation	Test Result
C=C1C[C@]23C[C@@]1(O)CC[C@H]2[C@@]12C=C[C@H](O)[C@@](C)(C(=O)O1)[C@H]2[C@@H]3C(=O)O	0.323

----------
conditions: in n-hexane, 288.15 K

Smiles Notation	solubility (mole fraction)
C=C1C[C@]23C[C@@]1(O)CC[C@H]2[C@@]12C=C[C@H](O)[C@@](C)(C(=O)O1)[C@H]2[C@@H]3C(=O)O	0.000239

----------
settings: in ethanol, 308.15 K

Smiles Notation	solubility (mole fraction)
C=C1C[C@]23C[C@@]1(O)CC[C@H]2[C@@]12C=C[C@H](O)[C@@](C)(C(=O)O1)[C@H]2[C@@H]3C(=O)O	0.344

----------
conditions: in ethyl acetate, 288.15 K

Smiles Notation	solubility (mole fraction)
C=C1C[C@]23C[C@@]1(O)CC[C@H]2[C@@]12C=C[C@H](O)[C@@](C)(C(=O)O1)[C@H]2[C@@H]3C(=O)O	0.0956

----------
conditions: in DMSO, 308.15 K

Smiles Notation	solubility (mole fraction)
C=C1C[C@]23C[C@@]1(O)CC[C@H]2[C@@]12C=C[C@H](O)[C@@](C)(C(=O)O1)[C@H]2[C@@H]3C(=O)O	0.263

----------
details: in n-heptane, 288.15 K

Smiles Notation	solubility (mole fraction)
C=C1C[C@]23C[C@@]1(O)CC[C@H]2[C@@]12C=C[C@H](O)[C@@](C)(C(=O)O1)[C@H]2[C@@H]3C(=O)O	0.000152

----------
conditions: in isopropanol, 278.15 K

Smiles Notation	solubility (mole fraction)
C=C1C[C@]23C[C@@]1(O)CC[C@H]2[C@@]12C=C[C@H](O)[C@@](C)(C(=O)O1)[C@H]2[C@@H]3C(=O)O	0.000502

----------
settings: in acetonitrile, 313.15 K

Smiles Notation	solubility (mole fraction)
C=C1C[C@]23C[C@@]1(O)CC[C@H]2[C@@]12C=C[C@H](O)[C@@](C)(C(=O)O1)[C@H]2[C@@H]3C(=O)O	0.0413

----------
settings: in THF, 308.15 K
Parameter Measured: solubility (mole fraction)

Smiles Notation	Parameter Measured	Test Result
C=C1C[C@]23C[C@@]1(O)CC[C@H]2[C@@]12C=C[C@H](O)[C@@](C)(C(=O)O1)[C@H]2[C@@H]3C(=O)O	solubility (mole fraction)	0.31

----------
settings: in THF, 278.15 K
Parameter Measured: solubility (mole fraction)

Smiles Notation	Test Result
C=C1C[C@]23C[C@@]1(O)CC[C@H]2[C@@]12C=C[C@H](O)[C@@](C)(C(=O)O1)[C@H]2[C@@H]3C(=O)O	0.149

----------
details: in ethyl acetate, 318.15 K
Parameter Measured: solubility (mole fraction)

Smiles Notation	Parameter Measured	Test Result
C=C1C[C@]23C[C@@]1(O)CC[C@H]2[C@@]12C=C[C@H](O)[C@@](C)(C(=O)O1)[C@H]2[C@@H]3C(=O)O	solubility (mole fraction)	0.235

----------
settings: in acetone, 308.15 K

Smiles Notation	solubility (mole fraction)
C=C1C[C@]23C[C@@]1(O)CC[C@H]2[C@@]12C=C[C@H](O)[C@@](C)(C(=O)O1)[C@H]2[C@@H]3C(=O)O	0.23

----------
details: in ethanol, 303.15 K

Smiles Notation	solubility (mole fraction)
C=C1C[C@]23C[C@@]1(O)CC[C@H]2[C@@]12C=C[C@H](O)[C@@](C)(C(=O)O1)[C@H]2[C@@H]3C(=O)O	0.312

----------
details: in isopropanol, 313.15 K
Parameter Measured: solubility (mole fraction)

Smiles Notation	Test Result
C=C1C[C@]23C[C@@]1(O)CC[C@H]2[C@@]12C=C[C@H](O)[C@@](C)(C(=O)O1)[C@H]2[C@@H]3C(=O)O	0.00096

----------
conditions: in n-butanol, 308.15 K

Smiles Notation	solubility (mole fraction)
C=C1C[C@]23C[C@@]1(O)CC[C@H]2[C@@]12C=C[C@H](O)[C@@](C)(C(=O)O1)[C@H]2[C@@H]3C(=O)O	0.0107

----------
conditions: in DMSO, 278.15 K
Parameter Measured: solubility (mole fraction)

Smiles Notation	Parameter Measured	Test Result
C=C1C[C@]23C[C@@]1(O)CC[C@H]2[C@@]12C=C[C@H](O)[C@@](C)(C(=O)O1)[C@H]2[C@@H]3C(=O)O	solubility (mole fraction)	0.121

----------
conditions: in ethyl acetate, 303.15 K

Smiles Notation	solubility (mole fraction)
C=C1C[C@]23C[C@@]1(O)CC[C@H]2[C@@]12C=C[C@H](O)[C@@](C)(C(=O)O1)[C@H]2[C@@H]3C(=O)O	0.152

----------
conditions: in n-hexane, 283.15 K

Smiles Notation	solubility (mole fraction)
C=C1C[C@]23C[C@@]1(O)CC[C@H]2[C@@]12C=C[C@H](O)[C@@](C)(C(=O)O1)[C@H]2[C@@H]3C(=O)O	0.000202

----------
settings: in ethanol, 293.15 K
Parameter Measured: solubility (mole fraction)

Smiles Notation	Parameter Measured	Test Result
C=C1C[C@]23C[C@@]1(O)CC[C@H]2[C@@]12C=C[C@H](O)[C@@](C)(C(=O)O1)[C@H]2[C@@H]3C(=O)O	solubility (mole fraction)	0.257

----------
details: in n-hexane, 278.15 K

Smiles Notation	solubility (mole fraction)
C=C1C[C@]23C[C@@]1(O)CC[C@H]2[C@@]12C=C[C@H](O)[C@@](C)(C(=O)O1)[C@H]2[C@@H]3C(=O)O	0.00017

----------
conditions: in THF, 283.15 K

Smiles Notation	solubility (mole fraction)
C=C1C[C@]23C[C@@]1(O)CC[C@H]2[C@@]12C=C[C@H](O)[C@@](C)(C(=O)O1)[C@H]2[C@@H]3C(=O)O	0.173

----------
settings: in acetonitrile, 278.15 K

Smiles Notation	solubility (mole fraction)
C=C1C[C@]23C[C@@]1(O)CC[C@H]2[C@@]12C=C[C@H](O)[C@@](C)(C(=O)O1)[C@H]2[C@@H]3C(=O)O	0.00864

----------
settings: in chloroform, 323.15 K

Smiles Notation	solubility (mole fraction)
C=C1C[C@]23C[C@@]1(O)CC[C@H]2[C@@]12C=C[C@H](O)[C@@](C)(C(=O)O1)[C@H]2[C@@H]3C(=O)O	0.13

----------
settings: in acetonitrile, 308.15 K

Smiles Notation	solubility (mole fraction)
C=C1C[C@]23C[C@@]1(O)CC[C@H]2[C@@]12C=C[C@H](O)[C@@](C)(C(=O)O1)[C@H]2[C@@H]3C(=O)O	0.0352

----------
conditions: in THF, 303.15 K
Parameter Measured: solubility (mole fraction)

Smiles Notation	Test Result
C=C1C[C@]23C[C@@]1(O)CC[C@H]2[C@@]12C=C[C@H](O)[C@@](C)(C(=O)O1)[C@H]2[C@@H]3C(=O)O	0.279
